// provenance: the nanobody polyreactivity screen of Harvey et al. (2022)

experiment: yeast display, Sf9 membrane polyspecificity reagent, FACS + sequencing; frameworks hold sequencing errors
endpoint: polyreactivity (PSR sort gate)

The cases that follow already have their polyreactivity (PSR sort gate) on record.
QVQLVESGGGLVQAGGSLRLSCAASGRIFGPYTMAWYRQAPRKERELVAAISRRGGSTYYADSVKGRFTISRDNAKNTVYLQMTSLKPEDTAVYYCAAKIYFLAILYDYWGQGTQVTVSS; high polyreactivity
QVQLVESGGGLVQARGSLRLSCAASGIIFYSYAMGWYRQAPGKEREFVAAITNSDGSTYYADSVKGRFTISRDNAKNTVYLQMNSLKPEDTAVYMYYWGQGTQVTVSS; low polyreactivity
QVQLVESGGGLVQAGGSLRLSCAASGRTFYWNAMGWSRQAPGKERELVASINCGGSTYYADSVKGRFTISRDNAKNTVYLQMNSLKPEGTAVYYCNAESYEFHRAWGDYDYWGQGTQVTVSS; low polyreactivity
QVQLVESGGGLVQAGGSLRLSCAASGRTDRTNAMGWYRQAPGKERELVAAISTGGGITNYADSVKGRITISRDNAKNTVYLQMNSLKPEDTAVYYCNADIYTWFQIGGYQYDYWGQGTHVTVSS; low polyreactivity

Input line: Data request, read-out polyreactivity (PSR sort gate), for QVQLVEAGGGLVQAGGSLRLSCAASGRTFLRYTMGWYRQAPGKEREWVASITRGGSTYYADSVKGRFTISRDNAKNTVYLQMNSLKPEDTAVYYCAAGKALLSRYYYWGQGTQVTVSS
Output line: high polyreactivity

Input line: Data request, read-out polyreactivity (PSR sort gate), for QVQLVESVGGLVQAGGSLPLSCAASGRTFTSYAMGWYRQAPGKERELVAAINYSGGSTYYADSVKGRFTISRDNAKNTVYLQMNSLKPEETAVYYCAKSSHAREYYYWGQGTQVTVSS
Output line: low polyreactivity

Input line: Data request, read-out polyreactivity (PSR sort gate), for QVQLVESGGGLVQAGGSLRLSCAASGSTFSGYAMGWYRQAPGKEMEFVATISISGGSTYYADSVKGRFTISRDNAKNTVYLQMNSLKPEDTAVYYCNADYYFSWGSIEDYWGQGTQVTVSS
Output line: low polyreactivity

Input line: Data request, read-out polyreactivity (PSR sort gate), for QVQLVESGGGLVQAGGSLRLSCAASGSTFDAYAMGWYRQAPGKERELVAAITWSGGSTYYADSVKGRFTISRDNAKTTVYLQMNSLKPEDTAVYYCAAYYLIFYFEFDYWGQGTQVTVYS
Output line: low polyreactivity

Input line: Data request, read-out polyreactivity (PSR sort gate), for QVQLVESGGGLVQAGGSLRLSCAASGRTIYKYMGWDRQAPGKERELVAAIRWSGGSTYYADSVKGRFTISRDNAKNTVYLQMNSLKPEETAVYYCNVDSYGYKYDYWGQGTQVTVSS
Output line: low polyreactivity

Input line: Data request, read-out polyreactivity (PSR sort gate), for QVPLVESGVGLVQAGGSLRLSCAASGSIFSYYAMGWYRQATGKERELVAAITVRGGSTYYADSVKGRFSISRDNAKNTVYLQMYSLIPEDTAVYYCAAVWLDESFSYGPYYYWGQGTQVTVSS
Output line: low polyreactivity

Input line: Data request, read-out polyreactivity (PSR sort gate), for QVQLVESGGGLVQEGGSLRLSCAASGSIFDTYAMGWYRQAPGKERELVAAISSGGRTYYADSVKGRFTISRDNAKNTDYFQMNSLKPEYTAVYYCAKERYQQGNYYRYGYWGQGTQVTVSS
Output line: high polyreactivity

Input line: Data request, read-out polyreactivity (PSR sort gate), for QVQLVESGGGFVQAGGSLRLSCAASGLSFNFNAMGWYRQAPGKERELVAAIDSGGDTNYADSVKGRFSISRDNEKNTVYLQMNSLKPEDTAVYYCNTDRYPYAFEYWGQGTQVTVSS
Output line: low polyreactivity

Input line: Data request, read-out polyreactivity (PSR sort gate), for QVQLVESGGGLVQAGGSLRLSCAASGFIFFTNAMGWYRQAPGKERELVAAITDDGSTYYADSVKGRFTISRDNAKNTVYLQMNSLKPEDTAVYYCNVVLQDPSYSWFWYDYDYWGQGTQVTVSS
Output line: high polyreactivity

----------
assay: yeast display, Sf9 membrane polyspecificity reagent, FACS + sequencing; frameworks hold sequencing errors
endpoint: polyreactivity (PSR sort gate)

The cases that follow already have their polyreactivity (PSR sort gate) on record.
QVQLVESGGGLVQAGGSLRLSCAASGIIIVGNSMGWYRQAPGKQRELVASINSGGSTYYADSVKGRFTISRDNAKNTVYLQMNSLKPEDTAVYDCAVEEDRYYYDDYDYCGQGTQVTVSS; low polyreactivity
QVQLVESGGGLVQAGGSLRLSCAASGRTFLSYMGWYRQAPGKERELVAISRYGTSTYYADSVKGRFTISRDNAKNTVYLQMNSLKPEDTAVFYCAAEVLRDGWWGYYYWGQGTQVTVSS; high polyreactivity
QVQLVESGGGLVQAGGSLRLSCAASGSIFGDNAMGWYRQAPGKERELVATISSSDASTYYADSVKGRFTISRDNAKNTVYLQMNSLKPEDTSVYYCAAARSGGYDYWGQGTQVTVSS; low polyreactivity
QVQLVESGGGLVQAGGSLRLSCAASGFTFWYYAMGWYRQAPGKERELVARITSRGADTYADSVKGRFTISRDNAKNTVYLQMNSLKPEDTAVYDCNADIISVSVYYFIVEYDYWGQGTQVTVSS; low polyreactivity
QVQLVESGGGLVQAGGSLRLSCAASGRTFNGYAMGWYRQAPGKEREFVAAITSRGGSTYYADSVKGRFTISRDNAKNTVYLQMNSLKPEDTAVYYCAARAYTALSWRRYGYWGQGTQVTVSS; high polyreactivity

Input line: Data request, read-out polyreactivity (PSR sort gate), for QVQLVESGGGLVQAGGSLRLSCAASGRTFRYYAMGWYRQAPGKERELVADISWSGGRTTYADSVKGRFTISRDNAKNTVYLQMNSLKPEDTAVYYCAKVLYYPSHVSWGQGTQVTVSS
Output line: high polyreactivity

----------
test: yeast display, Sf9 membrane polyspecificity reagent, FACS + sequencing; frameworks hold sequencing errors
endpoint: polyreactivity (PSR sort gate)

QVQLVESGGALVQAGGSLRLSCAASGITFYFYAMGWYIHAPGKEWELVAAIRSSGDSTYYADSVKGRFTISRDNAKNTVYLQMNSRKPEDTAVYYCAAYSHHQFSRSEYYYWGQGTQVTVSS; low polyreactivity
QVQLVESVGGLVQAGGSLSLSCAASGSIFIYNARGWYRQAPGKERELVATISSGGSTTYADSVKGRFTISRDNAKNTVYLQMNSLKPEDTAVYYCATYDPPDQYFYLGYYYWGANDYWGQGTQVTVSS; low polyreactivity

----------
test: yeast display, Sf9 membrane polyspecificity reagent, FACS + sequencing; frameworks hold sequencing errors
endpoint: polyreactivity (PSR sort gate)

The cases that follow already have their polyreactivity (PSR sort gate) on record.
QVQLVESGGGLVQAGGSLRLSCAASGLTIQYNAMVWYRQAPGKERELVAAISRSGGSTYYADSVKGRFTISRDNAKNTEYLQMISLKPEDTAVYYCNKVSPYRGYYWGQGTQVTVSS; high polyreactivity
QVQLVESGGGLVQAGGSLRLSCAASGSIFNLYAMGWYRQAPGKERELVAGIRWSGGRTYYADSVKGRFTISRDNAKNTVYLQMNSLKPEDTAVYYCNAGGYLSWWNDYDYWGQGTQVTVSS; high polyreactivity
QFQLVESGGGLVQAGGSLRLSCAASGSTFGVYAMGWYRQAPGKERELVATINSGGSTNYADSVKGRFTISRDNAKNTVYLQMNSLKPEDTAVYYCAAGPFWQDFYVYEYDYWGQGTQVTVSS; low polyreactivity
QVQLVESGGGLVQAGGSLRLSCAASGSTFPGNAMGWYRPAPGKERELVARINDGADTNYADSVKGRFTISRDNAKNTVYLQMNSLKPEDTAVYYCAKPYYDGRTHFDSWGQGTQVTVSS; low polyreactivity
QVQLVESGGGLVQAGGSLRLSCAASGYTFSVNAMGWYRQAPGKESELVATITSSGGGTYYADSVKGRFTISRDNAKNTVYLQMNSLKPEDTAVYYCAADGYWYGDIYPSDYRWYDYWGQGTQVTVSS; low polyreactivity

Then there is this sequence:
Input line: Data request, read-out polyreactivity (PSR sort gate), for QVQLVESGGGLVQAGGSLRLSCAASGFTFALNAMGWYRQAPGKERELVAAISFSGTRTYYADSVKGRFTISRDNAKNTVYLQMNSLKPEDTAVYYCAARVWVSDSYYPYYYWGQGTQVTVSS
Output line: high polyreactivity

----------
assay: yeast display, Sf9 membrane polyspecificity reagent, FACS + sequencing; frameworks hold sequencing errors
endpoint: polyreactivity (PSR sort gate)

QVQLVESGGGLVQAGGSLRLSCAASGGTFSRNAMGWYRQAPGKERELVAAINSSGVSTSYADSVKGRFTISRDNAKNTVYLQMNSLKPEDTAVYYCADETSSAEVDYWGQGTQVTVSS; low polyreactivity
QVQLVESGGGLVQAGGSLRLSCAASGSIFFWYTMGWYRQAPGKERELVATITGSGSSTTYADSVKGRFTISRDNAKNTVYFQMNSLKPEDTAVYYCAAADIIDHSFPYDYWGQGTQVTVSS; low polyreactivity
